target: delF508-CFTR-HRP (Homo sapiens, UniProt P13569, DEL508-508); construct: expressed in transfected cells; assay: Measurement of delF508-CFTR-HRP surface expression in CFBE41o- cells (HRP luminescence); format: cell-based; conditions: CFBE41o-, read-out: DelF508-CFTR-HRP Amax %;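 for DelF508-CFTR-HRP Amax %: percent efficacy relative to a reference CFTR corrector compound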
Sequence (P13569 with tags, fused parts or gaps DEL508-508): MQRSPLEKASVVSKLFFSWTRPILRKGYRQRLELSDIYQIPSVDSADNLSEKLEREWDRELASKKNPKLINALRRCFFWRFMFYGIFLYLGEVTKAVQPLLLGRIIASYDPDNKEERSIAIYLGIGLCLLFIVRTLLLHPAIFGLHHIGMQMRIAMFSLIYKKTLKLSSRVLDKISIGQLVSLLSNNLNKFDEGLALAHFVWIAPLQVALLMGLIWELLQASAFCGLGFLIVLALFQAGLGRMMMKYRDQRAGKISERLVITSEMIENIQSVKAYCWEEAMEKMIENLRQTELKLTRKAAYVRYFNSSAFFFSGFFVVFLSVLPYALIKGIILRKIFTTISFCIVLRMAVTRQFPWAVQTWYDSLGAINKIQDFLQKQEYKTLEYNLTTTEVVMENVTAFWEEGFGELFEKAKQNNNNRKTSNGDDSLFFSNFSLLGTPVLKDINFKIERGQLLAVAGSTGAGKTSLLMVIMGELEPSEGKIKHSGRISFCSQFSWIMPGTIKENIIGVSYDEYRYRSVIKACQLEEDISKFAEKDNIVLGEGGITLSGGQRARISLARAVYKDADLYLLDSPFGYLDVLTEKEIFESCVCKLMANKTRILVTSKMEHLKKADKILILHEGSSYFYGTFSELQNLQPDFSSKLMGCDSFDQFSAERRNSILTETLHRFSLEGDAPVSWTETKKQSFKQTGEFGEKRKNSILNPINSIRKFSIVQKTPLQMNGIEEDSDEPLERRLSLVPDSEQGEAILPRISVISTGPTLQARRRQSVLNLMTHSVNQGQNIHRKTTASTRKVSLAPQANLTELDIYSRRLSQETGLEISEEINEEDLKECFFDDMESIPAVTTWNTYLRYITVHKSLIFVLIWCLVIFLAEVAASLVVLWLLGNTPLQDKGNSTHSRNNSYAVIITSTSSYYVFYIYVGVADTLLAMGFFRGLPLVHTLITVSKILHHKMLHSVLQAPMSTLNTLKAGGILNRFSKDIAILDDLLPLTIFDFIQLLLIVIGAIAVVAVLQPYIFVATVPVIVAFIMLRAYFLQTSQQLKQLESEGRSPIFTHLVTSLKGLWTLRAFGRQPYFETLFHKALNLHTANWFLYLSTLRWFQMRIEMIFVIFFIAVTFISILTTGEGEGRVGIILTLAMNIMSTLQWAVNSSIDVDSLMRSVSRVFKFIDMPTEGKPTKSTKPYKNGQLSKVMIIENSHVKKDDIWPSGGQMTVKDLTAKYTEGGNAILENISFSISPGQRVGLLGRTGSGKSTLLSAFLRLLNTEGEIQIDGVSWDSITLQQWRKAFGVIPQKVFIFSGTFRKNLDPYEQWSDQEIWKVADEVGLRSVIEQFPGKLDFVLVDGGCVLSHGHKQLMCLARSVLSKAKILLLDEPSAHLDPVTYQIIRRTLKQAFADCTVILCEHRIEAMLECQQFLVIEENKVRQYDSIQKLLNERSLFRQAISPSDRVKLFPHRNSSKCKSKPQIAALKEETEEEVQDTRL
readout-name: Emax (%)
Dear colleague, please return just the value in %, with no unit written.

Under delF508-CFTR-HRP (Homo sapiens, UniProt P13569, DEL508-508), report Emax for `Cc1ccc(OC2CCCC2)c(OC2(C(=O)NS(=O)(=O)c3cccc(N4CC[C@H](O)C4)n3)CC2)c1`
285

Identify measured Emax obtained with delF508-CFTR-HRP (Homo sapiens, UniProt P13569, DEL508-508) for `Cc1ccc(-c2cc(C(F)(F)F)ccn2)c(OC2(C(=O)NS(=O)(=O)c3cccc(N4CC[C@H](O)C4)n3)CC2)c1` .
513

Fill in: Emax on delF508-CFTR-HRP (Homo sapiens, UniProt P13569, DEL508-508), entry `CC1(C)CCCN(c2ccc(Cl)cc2OC2(C(=O)NS(=O)(=O)c3cccc(N4CC[C@H](O)C4)n3)CC2)C1`
835

// fetch Emax for `Cc1ccc(C)c(OC2(C(=O)NS(=O)(=O)c3cccc(NC[C@@H](C)O)n3)CCCC2)c1` ; system: delF508-CFTR-HRP (Homo sapiens, UniProt P13569, DEL508-508)
84

* * *

Exercise: for every item that follows, state its recorded pEC50.
biological target: delF508-CFTR-HRP (Homo sapiens, UniProt P13569, DEL508-508); assay: Measurement of delF508-CFTR-HRP surface expression in CFBE41o- cells (HRP luminescence); details: mean of at least two replicates
Please express pEC50 as -log10 of the molar concentration.

For the compound `O=C(NS(=O)(=O)c1cccc(N2CC[C@H](O)C2)n1)C1(Oc2cc(Cl)ccc2OC2CCCC2)CC1` , report pEC50.
5.49

Fill in pEC50 for record C[C@@]1(O)CCN(c2cccc(S(=O)(=O)NC(=O)C3(Oc4cc(Cl)ccc4C4CC5(CCC5)C4)CC3)n2)C1 (single isomer, unassigned)
6.06

Indicate its recorded pEC50; the compound in question is `Cc1ccc(C2CCCCC2)c(OC2(C(=O)NS(=O)(=O)c3cccc(N4CCC(C)(C(=O)O)CC4)n3)CC2)c1`
5.52

Annotate the compound `Cc1ccc(C2CCCCC2)c(OC2(C(=O)NS(=O)(=O)c3cccc(NC[C@@H](C)O)n3)CC2)c1` with its measured pEC50.
5.54

Supply pEC50 value. Item: Cc1ccc(C2CCCCC2)c(OC2(C(=O)NS(=O)(=O)c3cccc(N4CCNC(C(F)(F)F)C4)n3)CC2)c1 (centres unmarked)
5.87

State its pEC50 for this compound: `O=C(NS(=O)(=O)c1cccc(N2CCC(O)(C(F)(F)F)CC2)n1)C1(Oc2cc(Cl)ccc2C2CC3(CCC3)C2)CC1`
6.31

Supply recorded pEC50 for Cc1ccc(C2CCCCC2)c(OC2(C(=O)NS(=O)(=O)c3cccc(NCC(C)O)n3)CC2)c1 (centres unmarked) here.
5.65

For the compound `Cc1ccc(-c2cc(C(F)(F)F)ccn2)c(OC2(C(=O)NS(=O)(=O)c3cccc(N4CC[C@H](O)C4)n3)CC2)c1` , give its measured pEC50 value.
5.68

Tell me measured pEC50 for Cc1ccc(C2CCC(C)(C)OC2)c(OC2(C(=O)NS(=O)(=O)c3cccc(N4CCC(O)(c5ccc(Cl)cc5)CC4)n3)CC2)c1 (single isomer, unassigned) [Example 11-1-2] please.
6.05

Give the measured pEC50 for `Cc1ccc(C2CCC(F)(F)CC2)c(OC2(C(=O)NS(=O)(=O)c3cccc(N4CCC5(CC4)CC(=O)c4cc(F)ccc4N5)n3)CC2)c1`
5.51

Look up pEC50 of Cc1ccc(C2CC=CCC2)c(OC2(C(=O)NS(=O)(=O)c3cccc(N4CC(C)(O)C4)n3)CC2)c1 (centres unmarked) and report it.
5.44

Name the recorded pEC50 of the compound listed here: `Cc1ccc(-c2ccc(C(F)(F)F)cc2)c(OC2(C(=O)NS(=O)(=O)c3cccc(N4CC[C@H](O)C4)n3)CC2)c1`
5.92

Tell us which pEC50 value is on record for `NC1(C(F)(F)F)CCN(c2cccc(S(=O)(=O)NC(=O)C3(Oc4cc(Cl)ccc4C4CC5(CCC5)C4)CC3)n2)CC1`
6.38

Answer with the recorded pEC50 of `Cc1ccc(C2CCCCC2)c(OC2(C(=O)NS(=O)(=O)c3cccc(N4CCC(C)(NC(=O)OC(C)(C)C)CC4)n3)CC2)c1` only.
6.27

Read off the recorded pEC50 for CC1(C)CCN(c2ccc(Cl)cc2OC2(C(=O)NS(=O)(=O)c3cccc(N4CCN5C(=O)CCC5C4)n3)CC2)CC1 (centres unmarked)
5.58

Assign pEC50 to the following record: Cc1ccc(C2CCC(C)(C)OC2)c(OC2(C(=O)NS(=O)(=O)c3cccc(N4CCC(O)(c5ccc(Cl)cc5)CC4)n3)CC2)c1 (single isomer, unassigned) [Example 11-1-1]
6.04

Answer with the recorded pEC50 of `Cc1ccc(C2CCCCC2)c(OC2(C(=O)NS(=O)(=O)c3cccc(N4CCNC(=O)C4)n3)CC2)c1` only.
5.40

For Cc1ccc([C@H]2CC[C@@H](F)CC2)c(OC2(C(=O)NS(=O)(=O)c3cccc(N4CC(C)(O)C4)n3)CC2)c1 (single isomer, unassigned) , write its pEC50.
5.38

Find the measured pEC50 of `Cc1ccc(C2(C(F)(F)F)CC2)c(OC2(C(=O)NS(=O)(=O)c3cccc(N)n3)CCCC2)c1` and report it.
5.62

Item `CC1(C)CCCN(c2ccc(Cl)cc2OC2(C(=O)NS(=O)(=O)c3cccc(N4CC[C@](C)(O)C4)n3)CC2)C1` : provide pEC50
6.21

Specify reported pEC50 for the compound shown: `CC1(C)CCN(c2ccc(C(F)(F)F)cc2OC2(C(=O)NS(=O)(=O)c3cccc(N4CC[C@H](O)C4)n3)CC2)CC1`
5.74

Supply measured pEC50 of Cc1ccc(C2CCCCC2)c(OC2(C(=O)NS(=O)(=O)c3cccc(N4CCC5(CCCC5N)CC4)n3)CC2)c1 (single isomer, unassigned) [Example 2-32-1] in your reply.
5.47

Supply recorded pEC50 for `O=C(NS(=O)(=O)c1cccc(N2CC3(CCO3)C2)n1)C1(Oc2cc(Cl)ccc2C2CC3(CCC3)C2)CC1` here.
6.06

Name the recorded pEC50 of the compound listed here: `CC1(C)CCN(c2ccc(Cl)cc2OC2(C(=O)NS(=O)(=O)c3cccc(N4CCC(c5ccccn5)CC4)n3)CC2)CC1`
6.22

Identify measured pEC50 associated with `CC1(C)CN(c2ccc(Cl)cc2OC2(C(=O)NS(=O)(=O)c3cccc(N4CC[C@H](O)C4)n3)CC2)CC2(CCCC2)O1`
5.64

Assign pEC50 to the following record: `CC1(C)CCCN(c2ccc(Cl)cc2OC2(C(=O)NS(=O)(=O)c3cccc(N4CC[C@@](C)(O)C4)n3)CC2)C1`
6.23

Just for reference, patent US20220033407A1 is where these values come from.
